assay: gradient 5% acetonitrile 3 min, to 50% in 2 min, to 85% in 15 min, held 3 min, 100 µL/min; conditions: column: Zorbax Extend-C18 2.1 x 50 mm; eluents: water / acetonitrile, 0.1% formic acid
READOUT NAME: RP-LC retention time (s)

See these solved cases before continuing.
O=C(CN1C(=O)C(O)(c2cccc(F)c2)c2ccccc21)NCCC1=CCCCC1 (stereo not drawn) : 965
CCOc1ccc(-c2csc(Cc3nc(-c4ccccc4Cl)no3)n2)cc1 : 1290
O=C(Cn1cccc(-c2nc(-c3ccc(F)cc3)no2)c1=O)NCc1cccs1 : 673
COc1cccc(CC(=O)N2CCC(C(=O)NCc3csc(-c4cccs4)n3)CC2)c1 : 774
Cc1ccc(C(=O)N2C[C@@H]3C[C@H](NC(=O)c4ccccc4)[C@H]2C3)cc1F : 811

(a) Cc1ccc(C)c(N2CCN(c3ccnc(SCC(=O)NCCC4=CCCCC4)n3)CC2)c1
(b) CCCNc1cc(-n2cccn2)ncn1
INPUT: // compare: a vs b , metric RP-LC retention time, want the smaller Give the label under which the chosen entry appears.
OUTPUT: b
(b: 668 s, a: 1090 s)

* * *

assay: gradient 5% acetonitrile 3 min, to 50% in 2 min, to 85% in 15 min, held 3 min, 100 µL/min; settings: column: Zorbax Extend-C18 2.1 x 50 mm; eluents: water / acetonitrile, 0.1% formic acid
READOUT NAME: RP-LC retention time (s)

Cc1ccc(NC(=O)N2CCN(c3ccc(=O)n(-c4ccccc4)n3)CC2)cc1Cl : 708
O=C(Nc1ccc(C2(C(=O)NCC3CCCO3)CC2)cc1)c1cccs1 (centres undefined) : 753
Cc1ccc2cc(CCC(=O)N3CCN(C(=O)c4ccco4)CC3)c(=O)[nH]c2c1 : 655
CCCN1CCN(C(=O)C2CCN(c3nc4ccc(-c5ccccc5)nc4s3)CC2)CC1 : 693
O=C(c1ccc(-c2cccs2)nc1)N1CCN(C2CCCCC2)CC1 : 711
CCCS(=O)(=O)N1CC(=O)N(c2ccc(F)cc2F)C(C)(C(=O)NC2CCCCCC2)C1 (centres undefined) : 979
Cc1nc(C(=O)Nc2ccc(C)c(F)c2)c(C)o1 : 946
CC(C)NC(=O)c1cc(N(C)C)nc2c(Cl)cccc12 : 816
Cn1nc(-c2nnc(-c3ccccc3)o2)c2c1CCN(S(=O)(=O)c1ccc(C#N)cc1)C2 : 897

* * *

assay: gradient 5% acetonitrile 3 min, to 50% in 2 min, to 85% in 15 min, held 3 min, 100 µL/min; conditions: column: Zorbax Extend-C18 2.1 x 50 mm; eluents: water / acetonitrile, 0.1% formic acid
READOUT NAME: RP-LC retention time (s)

Worked examples, 3 compounds total:
Cc1ccc(-n2cc3c(N4CCCC(C(=O)NCc5cccc(C(F)(F)F)c5)C4)ncnc3n2)cc1 (centres undefined) : 772
CCCN1CCn2cc(S(=O)(=O)Nc3ccc(F)cc3)cc2C1=O : 750
CC1CC(=O)NN=C1c1ccc(N)c([N+](=O)[O-])c1 (centres undefined) : 612

(A) COc1ccc(C(=O)Nc2nc(C)c3cc4c(cc3n2)OCO4)cc1
(B) CCn1c(=O)c(N2CCCC(C(=O)N3CCN(c4cccc(Cl)c4)CC3)C2)nc2ccccc21 (centres undefined)
INPUT: Lab note: record which item had the higher RP-LC retention time, A or B . Reply briefly: the label of your chosen item.
OUTPUT: B

(a) COc1ccc(CN2C[C@@H]3C(=O)N(C)C(=O)[C@@H]3C2)cc1OC
(b) O=C(NCc1ccccc1)C1CCCN(S(=O)(=O)c2c[nH]c(C(=O)N3CCCCCC3)c2)C1 (centres undefined)
INPUT: Between a and b , which one shows the smaller RP-LC retention time number? Indicate which entry you chose by stating its label.
OUTPUT: a

(A) CCC(=O)Nc1cnc(-c2ccc(F)cc2)nc1
(B) CCOc1ccccc1CNC(=O)c1nnc(-c2ccc(S(=O)(=O)N3CCC(C)CC3)cc2)o1
INPUT: Please indicate which item has the smaller measured RP-LC retention time: A versus B # reply format: chosen label
OUTPUT: A
(A: 794 s, B: 1140 s)

* * *

test: gradient 5% acetonitrile 3 min, to 50% in 2 min, to 85% in 15 min, held 3 min, 100 µL/min; conditions: column: Zorbax Extend-C18 2.1 x 50 mm; eluents: water / acetonitrile, 0.1% formic acid
READOUT NAME: RP-LC retention time (s)

Cc1ccc(CNC(=O)c2ccc(CN3CCN(C(C)C)C(=O)C3=O)cc2)cc1C : 763
Cn1cnc(S(=O)(=O)N2CCC[C@H](n3c(=O)n(C)c4cccnc43)C2)c1 : 654
CCOC(=O)N1CCC(NC(=O)Cn2cc(-c3ccc(C)cc3)oc2=O)CC1 : 772
Cc1cccc(S(=O)(=O)Nc2cccc(-c3cn4ccccc4n3)c2)c1 : 644
O=C1NC2(CCN(C(=O)Cc3cccc(F)c3)CC2)Nc2cc(Cl)ccc21 : 808
O=C(C1=CN(c2cccc(Cl)c2)c2cc(F)ccc2S1(=O)=O)N1CCCC1 : 868
CC1(C(=O)N2CC=C(c3ccccc3)CC2)CCCCC(=O)N1 (stereo unspecified) : 736
O=C(C1=CN(c2cccc(Cl)c2)c2ccccc2S1(=O)=O)N1CCCC1 : 814
COCCn1nc2n(c1=O)CCN(C(=O)c1ccc(Br)o1)CC2 : 636
CCOc1ccc(C2CNC(=O)C2C(=O)OC)cc1OCC (stereo unspecified) : 694

(I) O=C(OCc1cc(-c2cccs2)on1)c1cc(-c2ccco2)n[nH]1
(II) CC(=O)Nc1nc(-c2cccnc2)cs1
INPUT: Select one. Lower RP-LC retention time: I or II Indicate your choice by writing its label.
OUTPUT: II
(II: 504 s, I: 786 s)

(A) CCc1ccccc1NS(=O)(=O)c1cc2n(c1)CCCNC2=O
(B) CCCOc1ccc(CNC(=O)C2CCN(c3cc(Oc4ccccc4)ncn3)CC2)cc1
INPUT: Endpoint returns the identifier whose RP-LC retention time is numerically larger, either A or B . Mark your answer with the label of the selected entry.
OUTPUT: B

* * *

assay: gradient 5% acetonitrile 3 min, to 50% in 2 min, to 85% in 15 min, held 3 min, 100 µL/min; conditions: column: Zorbax Extend-C18 2.1 x 50 mm; eluents: water / acetonitrile, 0.1% formic acid
READOUT NAME: RP-LC retention time (s)

Examples with answers:
O=C(Cn1ccn2nc(-c3ccc(F)cc3)c(CO)c2c1=O)Nc1ccc2c(c1)OCCO2 : 786
O=C(Nc1cccc(Cl)c1)N1CCC(n2c(-c3ccco3)nc3cccnc32)C1 (centres undefined) : 800
COc1ccc(NS(=O)(=O)c2cn(C(C)C)c3ncccc23)cc1OC : 876
COc1ccc(C2C(C(=O)N3CCCCC3)=C(C)NC3=C2C(=O)CC(C)(C)C3)cc1OC (centres undefined) : 675
Cc1nnc(CNC(=O)c2cccc(-n3cnnn3)c2)o1 : 567

(1) COc1ccc(OC)c(NC(=O)N2CCN(c3ccc(=O)n(-c4ccc(C)cc4)n3)CC2)c1
(2) CN(CCNc1nc2ccncc2n(Cc2ccccc2)c1=O)C1CCCCC1
INPUT: Of 1 and 2 , whose reported RP-LC retention time is the larger number? Answer by stating the label of the chosen item.
OUTPUT: 1
(1: 835 s, 2: 573 s)

(a) CCOC(=O)Cn1c(C2CC(=O)N(Cc3ccccc3)C2)nc2ccccc21 (centres undefined)
(b) O=C(NC1CCCCCC1)C1CCCN(c2ncc(-c3ccc(F)cc3)cn2)C1 (centres undefined)
INPUT: Quick check, higher RP-LC retention time between a and b ? Use the label to indicate which entry you chose.
OUTPUT: b
(b: 1150 s, a: 749 s)

* * *

experiment: gradient 5% acetonitrile 3 min, to 50% in 2 min, to 85% in 15 min, held 3 min, 100 µL/min; details: column: Zorbax Extend-C18 2.1 x 50 mm; eluents: water / acetonitrile, 0.1% formic acid
READOUT NAME: RP-LC retention time (s)

The examples below pair each entry with its known result.
Fc1ccc(-c2nnc(Cc3nc(-c4cccc(Cl)c4)no3)o2)cc1 : 1070
CC1CCCN(S(=O)(=O)c2ccc(-n3cnc(C(=O)N4CCCCCC4)c3)nc2)C1 (centres undefined) : 920
Cc1[nH]nc(-c2ccc(S(=O)(=O)N3CCC(C)CC3)o2)c1C : 932
CCSc1nc2c(s1)c(=O)n(-c1ccccc1)c(=O)n2CC(=O)NCc1ccccc1 : 924
Cc1cc(=O)n(CC(=O)NCc2ccc(F)cc2Cl)c(N)n1 : 861

(1) Cc1[nH]c2ccccc2c1C(=O)C(=O)NC(C)c1ccccc1 (centres undefined)
(2) COc1ccccc1-c1nc(Cn2nnc(-c3nc(-c4ccc(C(F)(F)F)cc4)no3)c2C)c(C)o1
INPUT: Could you determine which record has the numerically smaller RP-LC retention time? Candidates: 1 and 2 Mark your answer with the label of the selected entry.
OUTPUT: 1

(P) CC(C)C[C@H](NC(=O)C1OC1C(=O)O)C(=O)NCCCCN=C(N)N (some centres undefined)
(Q) Cc1c(C(=O)C(=O)Nc2ccc3c(c2)OCCO3)c2ccccc2n1C
INPUT: // pick min by RP-LC retention time: P , Q Record your answer as the label of the chosen record.
OUTPUT: P
